melting point values by entry

Below, each entry is followed by its recorded melting point result.
compound	readout.label	data.value
Nc1c(Cl)ncnc1N1CCCC1	melting point	103 to 105 °C
Cc1nnc(CO)n1C1CC1	melting point	114 to 116 °C
CCc1cccc(Oc2ccc(F)cc2C=CC(=O)O)c1	melting point	106 to 108 °C
CCCn1ncc(C(=O)O)c1C1CC1	melting point	119 to 121 °C
O=Cc1ccc(-n2ccc(C(F)(F)F)n2)cc1	melting point	68 to 70 °C
Cn1cc(C(N)C(=O)O)cn1 (stereo not given)	melting point	245 to 247 °C

Data request: Field request: melting point | item: NS(=O)(=O)CCN1C(=O)c2ccccc2C1=O
Data returned: 209 to 211 °C

Data request: Field request: melting point | item: O=C(Cc1ccc2ccccc2c1)NO
Data returned: 185 to 187 °C

---

readout.label: melting point

Below, each entry is followed by its recorded melting point result.
compound	data.value
C/C(=N\O)c1ccc(-c2ccc(F)cc2)s1	139 to 141 °C
C/C(=N\O)c1sc(C)nc1C	131 to 133 °C
O=C(NCC1CCCC1)n1ccnc1	61 to 63 °C

Data request: Field request: melting point | item: COC(=O)C1CCc2ccccc2C1=O (stereo not drawn)
Data returned: 71 to 73 °C

Data request: Field request: melting point | item: CCOC(=O)c1cc(C)nc2c(C(N)=O)cnn12
Data returned: 198 to 200 °C

---

melting point values by entry

Data request: Field request: melting point | item: COC(=O)c1ccc(C(Br)Br)cc1
Data returned: 42 to 45 °C

Data request: Field request: melting point | item: CCOC(=O)C(=O)c1csc(N)n1
Data returned: 78 to 80 °C

Data request: Field request: melting point | item: O=C(O)c1ccc(OCC2CCCO2)cc1 (centres undefined)
Data returned: 130 to 132 °C

Data request: Field request: melting point | item: O=[N+]([O-])c1ccc(-c2cn[nH]c2)cc1
Data returned: 205 to 207 °C

---

readout.label: melting point

Below, each entry is followed by its recorded melting point result.
smiles.code	readout.label	data.value
COc1ccc(-c2nn(Cc3ccccc3)cc2C(=O)O)cc1OC	melting point	110 to 114 °C
COC(=O)c1cc2ccc(OCc3ccccc3)cc2[nH]1	melting point	136 to 138 °C
Cc1cc(CN2CCSCC2)ccc1N	melting point	106 to 108 °C
Cc1cc(C(=O)O)cc([N+](=O)[O-])c1	melting point	169 to 171 °C
CCOc1c(C#N)cnc2ccccc12	melting point	98 to 100 °C
CC(C)(C)S(=O)(=O)Cc1cccc(N)c1	melting point	175 to 177 °C

Data request: Field request: melting point | item: CC(=O)N1CCN(S(=O)(=O)c2cccc(C(=O)O)c2)CC1
Data returned: 258 to 262 °C

---

melting point values by entry

Below, each entry is followed by its recorded melting point result.
molecule	melting point
COC(=O)C(=O)CC(=O)c1ccc2c(c1)OCO2	98 to 105 °C
Cc1ccc(O)c(N)n1	145 to 147 °C
Fc1cc(CCl)c2c(c1)COC(c1ccccc1)O2 (configuration not stated)	61 to 65 °C
Clc1ccc(CBr)c2ncccc12	94 to 96 °C
CCOc1ccc([N+](=O)[O-])cc1CCl	68 to 70 °C

Data request: Field request: melting point | item: Nc1nnc(C(F)F)s1
Data returned: 174 to 176 °C

Data request: Field request: melting point | item: CNC(C(=O)O)c1ccccc1C(F)(F)F (configuration not stated)
Data returned: 290 to 292 °C
